log10 of EC50 for assorted compounds
Target: PPAR delta (Homo sapiens (Human), UniProt Q03181)
Sequence (Q03181 128-441 limits assumed): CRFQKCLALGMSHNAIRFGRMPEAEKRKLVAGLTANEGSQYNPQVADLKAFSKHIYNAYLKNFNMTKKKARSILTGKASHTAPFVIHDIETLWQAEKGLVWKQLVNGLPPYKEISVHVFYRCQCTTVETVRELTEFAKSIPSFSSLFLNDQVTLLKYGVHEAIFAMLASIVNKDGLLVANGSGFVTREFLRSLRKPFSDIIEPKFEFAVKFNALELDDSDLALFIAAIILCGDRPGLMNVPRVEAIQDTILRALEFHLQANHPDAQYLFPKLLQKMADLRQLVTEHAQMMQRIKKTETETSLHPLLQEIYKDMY
Experiment: PPARδ activity screen: GAL4-PPARδ LBD transactivation luciferase reporter in CV-1 cells
Assay type: cell-based
Settings: CV-1 cells, 24 h compound treatment, luciferase; read-out: PPAR delta transactivation EC50
Measured endpoint: log10 of EC50 (log10 of the value in nM)

- Compound: "Cc1cnc(-c2ccc(C(F)(F)F)cc2)n1Cc1cc(F)ccc1OCCC[C@@H](C)CC(=O)O"
  Measurement: 0.82
- Compound: "Cc1cnc(-c2ccc(C(F)(F)F)c(F)c2)n1Cc1ccccc1OCCCCC(C)(C)C(=O)O"
  Measurement: 0.54
- Compound: "Cc1cnc(-c2ccc(OC(F)F)cc2)n1Cc1ccccc1OCCC[C@@H](C)CC(=O)O"
  Measurement: 1.13
- Compound: "Cc1cnc(-c2ccc(C(F)(F)F)nc2)n1Cc1ccccc1OCCCCCC(=O)O [Comparator Compound 2, reference compound]"
  Measurement: 0.58
- Compound: "Cc1cnc(-c2ccc(C(F)(F)F)cc2)n1Cc1ccccc1OCCCCCC(=O)O [Comparator Compound 1, reference compound]"
  Measurement: -1.00
- Compound: "CSc1ccc(-c2ncc(C)n2Cc2ccccc2OCCC[C@@H](C)CC(=O)O)cc1"
  Measurement: 1.12
- Compound: "C/C(=C\\COc1ccccc1Cn1c(C)cnc1-c1ccc(OC(F)(F)F)cc1)CCC(=O)O"
  Measurement: -0.70
- Compound: "Cc1cnc(-c2ccc(C(F)(F)F)cc2)n1Cc1ccccc1OCCCCC(C)(C)C(=O)O"
  Measurement: 1.16
- Compound: "Cc1cnc(-c2ccc(F)cc2)n1Cc1ccccc1OCCC[C@@H](C)CC(=O)O"
  Measurement: 1.59
- Compound: "Cc1cnc(-c2ccc(C(F)F)cc2)n1Cc1ccccc1OCCC[C@@H](C)CC(=O)O"
  Measurement: 1.00
- Compound: "Cc1cnc(-c2ccc(-c3ccco3)cc2)n1Cc1ccccc1OCCC[C@@H](C)CC(=O)O"
  Measurement: 0.57
- Compound: "Cc1cnc(-c2ccc(Cl)c(F)c2)n1Cc1ccccc1OCCC[C@@H](C)CC(=O)O"
  Measurement: -0.10
- Compound: "Cc1cnc(-c2ccc(Cl)c(F)c2)n1Cc1ccccc1OCCCCC(C)(C)C(=O)O"
  Measurement: 1.27
- Compound: "Cc1ccc(OCCC[C@@H](C)CC(=O)O)c(Cn2c(C)cnc2-c2ccc(OC(F)(F)F)cc2)c1"
  Measurement: -0.30

###

Assay: Pharmacokinetic (PK) screening (i.v.) in male CD1 mice
Format: in vivo, mouse
Conditions: male, CD1, mouse, plasma, iv, 1 mg/kg, I.V. 1 mg/kg dose, plasma, read-out: CL
If the reported clearance equals or exceeds 20 mL/min/kg, assign label 1. If not, assign label 0.

- Structure smiles: "Cc1cnc(-c2ccc(C(F)(F)F)nc2)n1Cc1ccccc1OCCC[C@@H](C)CC(=O)O"
  Class: "label 1"
- Structure smiles: "Cc1cnc(-c2ccc(C(F)(F)F)cc2)n1Cc1cc(F)ccc1OCCC[C@@H](C)CC(=O)O"
  Class: "label 0"
- Structure smiles: "Cc1cnc(-c2ccc(OC(F)(F)F)cc2)n1Cc1ccccc1OCCC[C@@H](C)CC(=O)O"
  Class: "label 1"
- Structure smiles: "Cc1cnc(-c2ccc(Cl)cc2)n1Cc1ccccc1OCCC[C@@H](C)CC(=O)O"
  Class: "label 1"
- Structure smiles: "Cc1cnc(-c2ccc(C(F)(F)F)c(F)c2)n1Cc1ccccc1OCCCCC(C)(C)C(=O)O"
  Class: "label 1"

###

Experiment: Pharmacokinetic (PK) screening (i.v.) in male CD1 mice
Assay type: in vivo, mouse
Details: male, CD1, mouse, plasma, iv, 1 mg/kg, I.V. 1 mg/kg dose, plasma, read-out: CL
clearance for assorted molecules
Measured endpoint: clearance (mL/min/kg)

- Molecule: "Cc1cnc(-c2ccc(-c3ccco3)cc2)n1Cc1ccccc1OCCC[C@@H](C)CC(=O)O [Compound 2c]"
  Measurement: 73
- Molecule: "Cc1cnc(-c2ccc(OC(F)(F)F)cc2)n1Cc1ccccc1OCCCCCC(=O)O [comparator compound to 2e, reference compound]"
  Measurement: 185
- Molecule: "C/C(=C\\COc1ccccc1Cn1c(C)cnc1-c1ccc(OC(F)(F)F)cc1)CCC(=O)O [Compound 2e]"
  Measurement: 70
- Molecule: "Cc1ccc(OCCC[C@@H](C)CC(=O)O)c(Cn2c(C)cnc2-c2ccc(OC(F)(F)F)cc2)c1 [Compound 2m]"
  Measurement: 85
- Molecule: "Cc1cnc(-c2ccc(C(F)(F)F)cc2)n1Cc1ccccc1OCCCCC(C)(C)C(=O)O [Compound 2q]"
  Measurement: 11
- Molecule: "Cc1cnc(-c2ccc(Cl)c(F)c2)n1Cc1ccccc1OCCC[C@@H](C)CC(=O)O [Compound 2j]"
  Measurement: 38
- Molecule: "Cc1cnc(-c2ccc(C(F)(F)F)cc2)n1Cc1ccccc1OCCC[C@@H](C)CC(=O)O [Compound 2d]"
  Measurement: 25

###

Assay: Pharmacokinetic (PK) screening (i.v.) in male CD1 mice
Assay type: in vivo, mouse
Settings: male, CD1, mouse, plasma, iv, 1 mg/kg, I.V. 1 mg/kg dose, plasma, read-out: High or Low CL
Measured endpoint: clearance

- Compound: "Cc1cnc(-c2ccc(C(F)(F)F)cc2)n1Cc1ccccc1OCCC[C@@H](C)CC(=O)O [Compound 2d]"
  Measurement: "< 85 mL/min/kg"
- Compound: "Cc1cnc(-c2ccc(OC(F)(F)F)cc2)n1Cc1ccccc1OCCCCCC(=O)O [comparator compound to 2e, reference compound]"
  Measurement: "> 85 mL/min/kg"
- Compound: "Cc1cnc(-c2ccc(C(F)(F)F)cc2)n1Cc1cc(F)ccc1OCCC[C@@H](C)CC(=O)O [Compound 2k]"
  Measurement: "< 85 mL/min/kg"
- Compound: "C/C(=C\\COc1ccccc1Cn1c(C)cnc1-c1ccc(OC(F)(F)F)cc1)CCC(=O)O [Compound 2e]"
  Measurement: "< 85 mL/min/kg"

###

Target: PPAR delta (Homo sapiens (Human))
Experiment: PPARδ activity screen: GAL4-PPARδ LBD transactivation luciferase reporter in CV-1 cells
Assay type: cell-based
EC50 for assorted molecules
Measured endpoint: EC50 (nM)

- Structure smiles: "Cc1cnc(-c2ccc(Cl)cc2)n1Cc1ccccc1OCCC[C@@H](C)CC(=O)O"
  Measurement: 7.8
- Structure smiles: "Cc1ccc(-c2ncc(C)n2Cc2ccccc2OCCC[C@@H](C)CC(=O)O)cc1"
  Measurement: 24.3
- Structure smiles: "Cc1cnc(-c2ccc(OC(F)(F)F)cc2)n1Cc1ccccc1OCCC[C@@H](C)CC(=O)O"
  Measurement: 1
